Numbers sourced from ChEMBL document CHEMBL5360658.

ASSAY_METHOD_TEXT: Effective half life in monkey at 0.5 mg/kg, iv
Assay type: ADME, organism-based, Macaca mulatta
CONDITION_LABEL: rhesus monkey, in vivo, read-out: t1/2eff (converted)
ASSAY_READOUT: half-life (h)
Lab book: enter the figure in h, no units written.

half-life in this record for `C[C@@H]1CN(Cc2ccc3c(-c4cnn(C)c4)cc(C(N)=O)nc3c2)C[C@H](C(F)(F)F)O1` : 1.7

* * *

SYSTEM_NAME: Sodium channel protein type 5 subunit alpha (Homo sapiens, UniProt Q14524)
Sequence (Q14524 whole entry): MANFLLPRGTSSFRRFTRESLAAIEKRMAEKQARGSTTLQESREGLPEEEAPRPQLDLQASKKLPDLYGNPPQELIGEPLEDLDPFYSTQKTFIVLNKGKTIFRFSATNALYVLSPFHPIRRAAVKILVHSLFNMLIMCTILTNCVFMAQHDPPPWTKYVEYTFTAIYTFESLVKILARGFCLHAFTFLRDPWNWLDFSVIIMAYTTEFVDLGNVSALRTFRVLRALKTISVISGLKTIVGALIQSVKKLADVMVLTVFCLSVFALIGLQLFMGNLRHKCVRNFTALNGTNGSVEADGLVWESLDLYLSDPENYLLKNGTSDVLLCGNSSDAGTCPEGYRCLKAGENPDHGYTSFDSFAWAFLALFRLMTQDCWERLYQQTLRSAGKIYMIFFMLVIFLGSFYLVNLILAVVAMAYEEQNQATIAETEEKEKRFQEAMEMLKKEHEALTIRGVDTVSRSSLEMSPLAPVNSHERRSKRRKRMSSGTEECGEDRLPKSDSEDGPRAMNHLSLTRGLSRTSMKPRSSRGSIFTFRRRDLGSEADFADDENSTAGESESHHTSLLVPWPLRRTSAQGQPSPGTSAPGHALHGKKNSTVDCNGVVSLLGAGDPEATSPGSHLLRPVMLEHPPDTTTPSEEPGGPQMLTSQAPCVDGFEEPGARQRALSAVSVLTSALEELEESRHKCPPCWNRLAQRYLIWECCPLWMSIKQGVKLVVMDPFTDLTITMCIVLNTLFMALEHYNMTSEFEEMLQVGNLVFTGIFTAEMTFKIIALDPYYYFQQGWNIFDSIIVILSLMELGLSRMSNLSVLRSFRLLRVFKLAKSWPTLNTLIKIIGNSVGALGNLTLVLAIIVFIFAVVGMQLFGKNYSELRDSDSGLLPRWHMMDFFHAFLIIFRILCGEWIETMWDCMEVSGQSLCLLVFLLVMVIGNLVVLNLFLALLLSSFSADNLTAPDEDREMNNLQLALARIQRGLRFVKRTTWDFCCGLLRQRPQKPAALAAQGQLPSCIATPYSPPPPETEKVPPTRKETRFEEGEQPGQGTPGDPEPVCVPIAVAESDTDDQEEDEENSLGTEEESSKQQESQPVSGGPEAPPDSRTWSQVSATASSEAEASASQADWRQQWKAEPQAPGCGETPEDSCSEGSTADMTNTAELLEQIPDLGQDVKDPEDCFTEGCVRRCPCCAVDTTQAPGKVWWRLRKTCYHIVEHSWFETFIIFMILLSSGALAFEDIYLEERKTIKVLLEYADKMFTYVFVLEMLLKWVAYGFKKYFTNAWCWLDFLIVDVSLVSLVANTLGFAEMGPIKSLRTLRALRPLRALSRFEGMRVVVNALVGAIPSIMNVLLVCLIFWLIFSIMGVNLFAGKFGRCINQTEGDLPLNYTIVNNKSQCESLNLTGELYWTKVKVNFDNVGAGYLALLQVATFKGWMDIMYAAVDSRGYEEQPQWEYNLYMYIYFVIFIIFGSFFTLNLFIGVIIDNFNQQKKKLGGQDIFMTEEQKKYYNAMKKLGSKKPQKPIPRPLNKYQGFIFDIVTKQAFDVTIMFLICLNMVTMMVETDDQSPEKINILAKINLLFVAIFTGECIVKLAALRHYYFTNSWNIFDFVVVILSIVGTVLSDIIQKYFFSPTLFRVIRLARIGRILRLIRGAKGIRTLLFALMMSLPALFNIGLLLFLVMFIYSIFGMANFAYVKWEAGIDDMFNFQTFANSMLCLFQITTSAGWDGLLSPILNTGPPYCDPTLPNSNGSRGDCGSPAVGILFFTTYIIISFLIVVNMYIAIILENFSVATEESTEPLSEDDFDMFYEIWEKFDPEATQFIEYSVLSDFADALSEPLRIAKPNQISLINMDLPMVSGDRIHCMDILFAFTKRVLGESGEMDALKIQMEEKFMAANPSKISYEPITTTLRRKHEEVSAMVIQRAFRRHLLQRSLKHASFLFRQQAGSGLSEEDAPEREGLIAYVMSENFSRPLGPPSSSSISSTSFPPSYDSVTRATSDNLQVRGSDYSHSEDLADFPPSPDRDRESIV
ASSAY_METHOD_TEXT: Inhibition of NaV 1.5 channel (unknown origin) by automated patch-clamp assay
pIC50: −log10 of the molar value.
ASSAY_READOUT: pIC50

pIC50 in this record for `Cn1cc(-c2cc(C(N)=O)nc3cc(CN4CCO[C@@H](C(F)(F)F)C4)ccc23)cn1` : < 4.52
